- Test system: MS2 coat protein
- TEST DESCRIPTION: apparent KD of MS2 coat protein; designed switch direction (-1 OFF switch, 1 ON switch): 1; higher = weaker reporter binding
- MEASUREMENT CONTEXT: input ligand: microRNA oligo, concentration not stated
Recorded apparent KD of MS2 coat protein determines the label; the label ranges are low (below 0.04 µM), mid (0.04 µM to below 0.08 µM), high (0.08 µM or more)

>  <RESIDUE CODES>
GGAGCCGGCCUAGGAUAUUUCAUGAAAAAACAUGAGGAUCACCCAUGUAGGCCAGAAGGCCUUGGGAAGAAGGAGGUCGGCUCC [Loop Effect - G24] (Eterna round: R96, puzzle: Same State NG 2)

>  <TARGET DESC>
MS2 coat protein

>  <GROUP LABEL>
high

$$$$
>  <RESIDUE CODES>
GUGCUCGUGUAAGGAUAUGCAGCCGUUUCGGCUGCAGAAGGUACUAUAAUACAUGAGGAUCACCCAUGUCUCUUUUGUUUGGUG [salish99_SSNG1_r04_907] (Eterna round: R96, puzzle: Same State NG 1)

>  <TARGET DESC>
MS2 coat protein

>  <GROUP LABEL>
high

$$$$
>  <RESIDUE CODES>
UGAAUAGUGAUAGGAUAUACAUGAGGAAUCCUCGUAGAAGGAUCAUAACAUGAGGAUCACCCAUGUAGCCGUCCGUAGACGGCA [Mat - Same State NG 1 - JL mod - D56] (Eterna round: R96, puzzle: Same State NG 1)

>  <TARGET DESC>
MS2 coat protein

>  <GROUP LABEL>
mid

$$$$
>  <RESIDUE CODES>
GCGAGCGUACUUGCAGACAUGAGGAUCACCCAUGUAACUGGACAGGAUAUGGUACCGUUUCGGUACCAGAAGGGUUUACAUGUU [JL SSNG3 3.51] (Eterna round: R96, puzzle: Same State NG 3)

>  <TARGET DESC>
MS2 coat protein

>  <GROUP LABEL>
low

$$$$
>  <RESIDUE CODES>
UAUGAAUUGCAAGGAUAUUGAUAACAUGAGGAUCACCCAUGUAAUUGAUCGAGUUAGAUCAGUUACAAGAAGGUGCUAUUGAUU [JR_SSNG2_Sub036] (Eterna round: R96, puzzle: Same State NG 2)

>  <TARGET DESC>
MS2 coat protein

>  <GROUP LABEL>
low

$$$$
>  <RESIDUE CODES>
ACAUGAGGAUCACCCAUGUGAAAAGACCUAGAGGUGAAGCCGCAGGAUAUAUCACAAACGAGAAGAUAGAAGGGCGUACGCAUG [Eternabot solution 9] (Eterna round: R96, puzzle: Same State NG 3)

>  <TARGET DESC>
MS2 coat protein

>  <GROUP LABEL>
mid

$$$$
>  <RESIDUE CODES>
UUUACUUUCAUAGGAUAUCAUGCGAAAAUUGCGUGAGAAGGGUGCACACUGUCUUUCUCGGAGUACAUGAGGAUCACCCAUGUG [SameState NG1 #67] (Eterna round: R96, puzzle: Same State NG 1)

>  <TARGET DESC>
MS2 coat protein

>  <GROUP LABEL>
low

$$$$
